Biological target: plasma membrane Ca2+-ATPase (PMCA), 90% PMCA4b (Homo sapiens)
Sequence (P23634 1-1205 isoform P23634-6): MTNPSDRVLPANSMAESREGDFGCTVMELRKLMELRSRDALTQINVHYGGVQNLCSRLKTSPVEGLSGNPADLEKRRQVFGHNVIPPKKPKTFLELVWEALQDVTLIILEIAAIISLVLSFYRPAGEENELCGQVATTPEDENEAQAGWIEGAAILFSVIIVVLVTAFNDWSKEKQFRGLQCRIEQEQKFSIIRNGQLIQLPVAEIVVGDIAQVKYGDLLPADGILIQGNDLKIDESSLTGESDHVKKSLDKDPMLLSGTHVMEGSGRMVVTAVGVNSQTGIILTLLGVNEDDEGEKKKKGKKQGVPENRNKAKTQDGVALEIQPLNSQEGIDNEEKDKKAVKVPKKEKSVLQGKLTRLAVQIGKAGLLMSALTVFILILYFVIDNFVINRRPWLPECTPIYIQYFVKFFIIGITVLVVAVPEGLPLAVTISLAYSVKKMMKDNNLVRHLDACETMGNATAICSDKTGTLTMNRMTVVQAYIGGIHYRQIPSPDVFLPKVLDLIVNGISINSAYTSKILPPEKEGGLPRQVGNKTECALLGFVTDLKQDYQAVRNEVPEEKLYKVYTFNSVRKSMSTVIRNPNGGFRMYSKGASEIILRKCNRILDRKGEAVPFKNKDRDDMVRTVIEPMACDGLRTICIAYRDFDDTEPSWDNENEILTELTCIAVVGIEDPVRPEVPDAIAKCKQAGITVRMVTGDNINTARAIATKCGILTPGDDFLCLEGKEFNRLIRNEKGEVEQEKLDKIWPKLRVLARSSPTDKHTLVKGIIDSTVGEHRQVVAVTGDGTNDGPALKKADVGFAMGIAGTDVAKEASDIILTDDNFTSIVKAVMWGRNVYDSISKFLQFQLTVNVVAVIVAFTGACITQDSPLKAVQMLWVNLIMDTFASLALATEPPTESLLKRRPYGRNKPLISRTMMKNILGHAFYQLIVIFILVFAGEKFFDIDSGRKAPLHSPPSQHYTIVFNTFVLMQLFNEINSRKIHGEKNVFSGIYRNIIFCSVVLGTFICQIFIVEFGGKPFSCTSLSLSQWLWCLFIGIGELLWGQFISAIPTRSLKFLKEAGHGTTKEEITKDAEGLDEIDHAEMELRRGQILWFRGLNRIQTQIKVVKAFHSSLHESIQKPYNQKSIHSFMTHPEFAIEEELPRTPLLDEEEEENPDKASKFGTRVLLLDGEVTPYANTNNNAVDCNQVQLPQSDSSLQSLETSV
Experiment: fluorescence of ATA bound to purified PMCA and quenching of intrinsic Trp fluorescence; also Ca2+-ATPase inhibition (Ki […])
Measure Name: Kd (nM)
Write the number in nM without appending the unit.

INPUT: I am curious: what Kd value has been reported for O=C(O)C1=CC(=C(c2ccc(O)c(C(=O)O)c2)c2ccc(O)c(C(=O)O)c2)C=CC1=O [ATA, aurintricarboxylic acid] ?
OUTPUT: 160

The values you see were collected from paper PMC11208427.
